study-system: ScSla1-D1-D2
assay-notes: SPOT peptide array binding signal intensity (averaged, normalized) (arbitrary units (background-subtracted, floor 0; scale differs between SH3 domains)); higher = stronger binding of the SH3 domain to the peptide
Exercise: for every item that follows, state its recorded SPOT peptide array binding signal intensity.
Numbers only.

Consider the binder QPQRTAPKPPISAPR and give its recorded SPOT peptide array binding signal intensity.
1730

Hey, quick one: what's SPOT peptide array binding signal intensity for each of these?
1. RKRRTHLRLPLIRSN
2. QRKSLRRPTLSKPAV
3. AGKRRLPLVRFKASD
4. VFQFQMPTTPISTKM
5. KIRRSSLMIPNPQQF

268
370
1180
245
526

Hey, quick one: what's SPOT peptide array binding signal intensity for each of these?
1. VKPRQLFPIPLNKVD
2. FIRKRAPTPPAPSRS
3. RRRDFGAPANKRPRR
4. KRNRLKILLPFLEQS
5. MTKTPETSPPKRPMG
6. QHQQRQPKRPKRYSL

[1.5, 2370, 611, 122, 62.5, 372]

Hey, quick one: what's SPOT peptide array binding signal intensity for each of these?
1. QGYPRQPQRPQRYHP
2. GRLRPKRIAPWHLIQ
3. KRRTSLFPWLHKPGI
4. VSKLRSPNTPRRLRK
5. QTREPNEPPPPSPAM
6. RRASLFPRDPKRLRP

12
134
56.5
953
1.5
1000

Hey, quick one: what's SPOT peptide array binding signal intensity for each of these?
1. NMLSRPRLAKLPSIR
2. LSKRLPLRFPEHTSS
3. RMVRRRPLRVQFSAR
4. ISRRRLPVIMHRLKM
5. VGFRLALKFPSRITG
6. MKRSRPSRSIPYTTP

389
6
1030
222
561
126
